Data provenance: ChEMBL document CHEMBL6092183

# assay-procedure: in vitro
# details: rat, microsomes
Kindly apply the following: condition met if microsomal CLint at 0.75 h, 0.3 µM is less than 90 µL/min/mg, condition not met in every other case.

compound | group
O=C(NCCCC[C@H](NC(=O)C1CN2CCC1CC2)c1ncc(-c2ccc3ccccc3c2)[nH]1)c1c(O)cccc1F (stereo not given in full) | condition not met
CCC(=O)CCCCC[C@H](NC(=O)C1C2COCC21)c1ncc(-c2ccccc2)[nH]1 (stereo not given in full) | condition met
CCC(=O)CCCCC[C@H](NC(=O)C1C2CNCC21)c1ncc(-c2ccccc2)[nH]1 (stereo not given in full) | condition met
CS(=O)(=O)N1CC2(CC2C(=O)N[C@@H](CCCCNC(=O)c2c(O)cccc2F)c2ncc(-c3ccc4ccccc4c3)[nH]2)C1 (stereo not given in full) | condition not met
O=C(NCCCC[C@H](NC(=O)C1C2COCC21)c1ncc(-c2ccc3ccccc3c2)[nH]1)c1c(O)cccc1F (stereo not given in full) | condition not met
O=C(NCCCC[C@H](NC(=O)C1CC12CCNCC2)c1ncc(-c2ccc3ccccc3c2)[nH]1)c1c(O)cccc1F (stereo not given in full) | condition met
CCCC[C@H](NC(=O)[C@H](CN)c1c[nH]c2ccc(OC)cc12)c1nc(-c2cc(C)cc(C)c2)c[nH]1 | condition met
CCCC[C@H](NC(=O)[C@H](CN)c1c[nH]c2ccc(OC)cc12)c1nc(-c2ccc(C#N)cc2)c[nH]1 | condition met
O=C(NCCCC[C@H](NC(=O)C1CCCCC12CC2)c1ncc(-c2ccc3ccccc3c2)[nH]1)c1c(O)cccc1F (stereo not given in full) | condition not met
CCCC[C@H](NC(=O)[C@H](CN)c1c[nH]c2ccc(OC)cc12)c1nc(-c2ccc(OC)cc2)c[nH]1 | condition not met
CCC(=O)CCCCC[C@H](NC(=O)C1CC12CN(C(C)=O)C2)c1ncc(-c2ccccc2)[nH]1 (stereo not given in full) | condition met
O=C(NCCCC[C@H](NC(=O)C1CC12CCCCC2)c1ncc(-c2ccc3ccccc3c2)[nH]1)c1c(O)cccc1F (stereo not given in full) | condition not met
O=C(NCCCC[C@H](NC(=O)C1C2CNCC21)c1ncc(-c2ccc3ccccc3c2)[nH]1)c1c(O)cccc1F (stereo not given in full) | condition met
CCCC[C@H](NC(=O)[C@H](CN)c1c[nH]c2ccc(OC)cc12)c1nc(-c2ccc(-c3ccn(C)n3)cc2)c[nH]1 | condition met
CC(=O)N1CC2(CC2C(=O)N[C@@H](CCCCNC(=O)c2c(O)cccc2F)c2ncc(-c3ccc4ccccc4c3)[nH]2)C1 (stereo not given in full) | condition not met
CCC(=O)CCCCC[C@H](NC(=O)C1CC2CCN1CC2)c1ncc(-c2ccccc2)[nH]1 (stereo not given in full) | condition not met
CCCC[C@H](NC(=O)[C@H](CN)c1c[nH]c2ccc(OC)cc12)c1nc(-c2cccc(C)c2)c[nH]1 | condition not met
CCCC[C@H](NC(=O)[C@H](CN)c1c[nH]c2ccc(OC)cc12)c1nc(-c2ccc3c(C)noc3c2)c[nH]1 | condition not met
CCC(=O)CCCCC[C@H](NC(=O)C1CN2CCC1CC2)c1ncc(-c2ccccc2)[nH]1 (stereo not given in full) | condition not met
CCCC[C@H](NC(=O)[C@H](CN)c1c[nH]c2ccc(OC)cc12)c1nc(-c2ccc(C3CC(C)(C)C3)cc2)c[nH]1 | condition not met
O=C(NCCCC[C@H](NC(=O)C1CC12CCCC2)c1ncc(-c2ccc3ccccc3c2)[nH]1)c1c(O)cccc1F (stereo not given in full) | condition not met
CCCC[C@H](NC(=O)[C@H](CN)c1c[nH]c2ccc(OC)cc12)c1nc(-c2ccn(C)c(=O)c2)c[nH]1 | condition met
CCC(=O)CCCCC[C@H](NC(=O)C1CC12CCCC2)c1ncc(-c2ccccc2)[nH]1 (stereo not given in full) | condition not met
O=C(NCCCC[C@H](NC(=O)C1C2CCNC21)c1ncc(-c2ccc3ccccc3c2)[nH]1)c1c(O)cccc1F (stereo not given in full) | condition not met

* * *

Each entry below lists one item and its recorded log10 IC50 value.
# assay-target: Histone deacetylase 2 (Homo sapiens, UniProt Q92769)
# Sequence (Q92769 whole entry): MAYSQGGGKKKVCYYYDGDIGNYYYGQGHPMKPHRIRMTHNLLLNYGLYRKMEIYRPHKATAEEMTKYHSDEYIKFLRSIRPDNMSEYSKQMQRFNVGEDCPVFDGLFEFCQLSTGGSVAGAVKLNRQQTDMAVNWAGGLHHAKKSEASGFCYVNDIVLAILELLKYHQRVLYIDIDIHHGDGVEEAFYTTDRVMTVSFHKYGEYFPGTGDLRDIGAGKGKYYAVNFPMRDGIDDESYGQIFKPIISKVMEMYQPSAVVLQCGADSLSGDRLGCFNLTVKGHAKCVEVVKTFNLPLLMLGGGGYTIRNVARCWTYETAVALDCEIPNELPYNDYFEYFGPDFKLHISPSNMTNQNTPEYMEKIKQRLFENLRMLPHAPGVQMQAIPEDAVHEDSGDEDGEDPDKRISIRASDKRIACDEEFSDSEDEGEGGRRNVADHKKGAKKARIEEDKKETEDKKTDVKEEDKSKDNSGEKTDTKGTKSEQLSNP
# assay-procedure: Inhibition of HDAC2 (unknown origin) incubated for 30 mins by ALIS assay
quantity-name: log10 IC50 (log10 of the value in nM)

compound | measured
CC(=O)N1CC2(CC2C(=O)N[C@@H](CCCCNC(=O)c2c(O)cccc2F)c2ncc(-c3ccc4ccccc4c3)[nH]2)C1 (stereo not given in full) | 1.81
CCC(=O)CCCCC[C@H](NC(=O)C1CC2CCN1CC2)c1ncc(-c2ccccc2)[nH]1 (stereo not given in full) | 1.99
CCC(=O)CCCCC[C@H](NC(=O)C1C2CNCC21)c1ncc(-c2ccccc2)[nH]1 (stereo not given in full) | 2.05
CCC(=O)CCCCC[C@H](NC(=O)C1C2COCC21)c1ncc(-c2ccccc2)[nH]1 (stereo not given in full) | 2.47
O=C(NCCCC[C@H](NC(=O)C1C2CNCC21)c1ncc(-c2ccc3ccccc3c2)[nH]1)c1c(O)cccc1F (stereo not given in full) | 1.57
CCC(=O)CCCCC[C@H](NC(=O)C1CN2CCC1CC2)c1ncc(-c2ccccc2)[nH]1 (stereo not given in full) | 2.16
CCC(=O)CCCCC[C@H](NC(=O)CC1CN2CCC1CC2)c1ncc(-c2ccccc2)[nH]1 (stereo not given in full) | 2.32
CCC(=O)CCCCC[C@H](NC(=O)C1CC12CN(C(C)=O)C2)c1ncc(-c2ccccc2)[nH]1 (stereo not given in full) | 2.63
O=C(NCCCC[C@H](NC(=O)C1CN2CCC1CC2)c1ncc(-c2ccc3ccccc3c2)[nH]1)c1c(O)cccc1F (stereo not given in full) | 1.28
O=C(NCCCC[C@H](NC(=O)C1CC12CCCCC2)c1ncc(-c2ccc3ccccc3c2)[nH]1)c1c(O)cccc1F (stereo not given in full) | 2.64
